# Tested on: MYB mRNA
# PROTOCOL_SUMMARY: Splicing RT-qPCR assay, MYB canonical (CJ) and alternative (AJ) junction mRNA
# Format: cell-based, human
# STUDY_CONDITIONS: Homo sapiens, 24 h, A673 or K562 cells, 24 hours compound treatment, RT-qPCR; read-out: MYB AJ (AC50, increase in alternative junction mRNA)
MEASURED_ATTRIBUTE: AC50

The molecule identified as Cc1cn2cc(NC(=O)c3ccc(N4CCNCC4)c4cc(C)oc34)ncc2n1 registered its AC50 at 100 to 1000 nM

The molecule identified as Cc1cn2cc(NC(=O)c3ccc(N4C[C@@H](C)N[C@@H](C)C4)c4cn(C)nc34)nc(C)c2n1 registered its AC50 at 100 to 1000 nM

The molecule identified as Cc1cn2cc(NC(=O)c3ccc(N4CCNCC4)c4cn(C5CC(O)C5)nc34)cc(F)c2n1 (stereo not shown) registered its AC50 at < 100 nM

The molecule identified as CCn1cc2c(N3CC[C@@H](N(C)C)C3)cc(O)c(C(=O)Nc3cc(F)c4nc(C)cn4c3)c2n1 registered its AC50 at 1000 to 10000 nM

The molecule identified as Cc1cn2cc(NC(=O)c3ccc(N4CCNCC4)c4nnn(C)c34)cc(F)c2n1 registered its AC50 at > 10000 nM

The molecule identified as COCCn1cc2c(N3CCNCC3)ccc(C(=O)Nc3cn4cc(C)nc4c(OC)n3)c2n1 registered its AC50 at 100 to 1000 nM

* * *

# System: MYB mRNA
# PROTOCOL_SUMMARY: Splicing RT-qPCR assay, MYB canonical (CJ) and alternative (AJ) junction mRNA
# Type: cell-based, human
# STUDY_CONDITIONS: Homo sapiens, 24 h, A673 or K562 cells, 24 hours compound treatment, RT-qPCR; read-out: MYB AJ (AC50, increase in alternative junction mRNA)
Structures can show the parent of a compound that is named as a salt.
Entries and their AC50

molecule="CNC1CCN(c2ccc(C(=O)Nc3cc(F)c4nc(C)cn4c3)c3nn(C)cc23)C1 (stereo not drawn) [Compound 298, trifluoroacetic acid salt]" target_system="MYB mRNA" measured_attribute=AC50 recorded_measurement="0.1 to 1 µM"
molecule=CCNC1CCN(c2ccc(C/N=C3\C=C(F)c4nc(C)cn4C3)c3nn(C)cc23)CC1 target_system="MYB mRNA" measured_attribute=AC50 recorded_measurement="> 10 µM"
molecule=CCn1cc2c(N3CC[C@@](C)(NC)C3)ccc(C(=O)Nc3cc(F)c4nc(C)cn4c3)c2n1 target_system="MYB mRNA" measured_attribute=AC50 recorded_measurement="> 10 µM"
molecule="CCn1cc2c(N3CCC4(CC3)CCN4C)ccc(C(=O)Nc3cc(F)c4nc(C)cn4c3)c2n1 [Compound 401, 2,2,2-trifluoroacetate]" target_system="MYB mRNA" measured_attribute=AC50 recorded_measurement="< 0.1 µM"
molecule=Cc1cn2cc(NC(=O)c3ccc(N4CC[C@H](NC5CC5)C4)c4cn(C)nc34)cc(F)c2n1 target_system="MYB mRNA" measured_attribute=AC50 recorded_measurement="< 0.1 µM"

The molecule identified as Cc1cn2cc(NC(=O)c3ccc(N4CCNCC4)c4cn(C)nc34)c(=O)n(C)c2n1 registered its AC50 at 1 to 10 µM

The molecule identified as Cc1cn2cc(NC(=O)c3ccc(N4CC[C@@H](NC(C)C)C4)c4cn(C)nc34)cc(F)c2n1 registered its AC50 at < 0.1 µM

The molecule identified as Cc1cn2cc(NC(=O)c3ccc(N4CCNCC4)c4cn(C5COC5)nc34)cc(F)c2n1 registered its AC50 at 0.1 to 1 µM

The molecule identified as Cc1cc2c(N3CCNCC3)ccc(C(=O)Nc3cc(F)c4nc(C)sc4c3)c2o1 registered its AC50 at 1 to 10 µM

The molecule identified as CCn1cc2c(N3CC[C@@H](NC)C3)ccc(C(=O)Nc3cc(Cl)c4nc(C)cn4c3)c2n1 registered its AC50 at > 10 µM
